target: Muscarinic acetylcholine receptor M3 (Cavia porcellus); test: Antagonist activity at muscarinic receptor M3 assessed as contraction of guinea pig ileum; assay type: functional, tissue-based; details: filed as antagonist
VALUE_KIND: pKb
Respond with the number and no other words.

[
  {
    "COMPOUND_STRUCTURE_STRING": "C[N+]1(C)CCC[C@H]1[C@H]1CSC(c2ccccc2)(c2ccccc2)O1",
    "TARGET_UNDER_TEST": "Muscarinic acetylcholine receptor M3 (Cavia porcellus)",
    "pKb": 9.16
  },
  {
    "COMPOUND_STRUCTURE_STRING": "C[N+]1(C)CCC[C@H]1[C@H]1CS[C@](c2ccccc2)(C2CCCCC2)O1",
    "TARGET_UNDER_TEST": "Muscarinic acetylcholine receptor M3 (Cavia porcellus)",
    "pKb": 8.5
  },
  {
    "COMPOUND_STRUCTURE_STRING": "C[N+]1(C)CCC[C@@H]1[C@@H]1CS[C@@](c2ccccc2)(C2CCCCC2)O1",
    "TARGET_UNDER_TEST": "Muscarinic acetylcholine receptor M3 (Cavia porcellus)",
    "pKb": 8.79
  }
]

Query: Which pKb reading was recorded for the compound "C[N+](C)(C)C[C@@H]1CS[C@@](c2ccccc2)(C2CCCCC2)O1" ?
Response: 8.79

Query: So what's the measured pKb for this one? "C[N+]1(C)CCC[C@@H]1[C@@H]1CS[C@](c2ccccc2)(C2CCCCC2)O1"
Response: 8.84

Query: Quick one: pKb of "CN1CCC[C@@H]1[C@@H]1CSC(c2ccccc2)(c2ccccc2)O1" ?
Response: 8.44

Query: Item under review: "CN1CCC[C@H]1[C@H]1CS[C@@](c2ccccc2)(C2CCCCC2)O1" . Reported pKb?
Response: 8.92

Query: Give its pKb value. Item: "CN1CCC[C@@H]1[C@@H]1CS[C@](c2ccccc2)(C2CCCCC2)O1"
Response: 8.55

Query: Report pKb for "C[N+]1(C)CCC[C@H]1[C@H]1CS[C@@](c2ccccc2)(C2CCCCC2)O1" please.
Response: 9.66
